Assay explanation: in vitro
Condition context: human, hela cells, % viability
Entries and their measured viability at 28.5 h, 10 µM follow.
Measured endpoint: viability at 28.5 h, 10 µM (%)

Compound: COc1cccc(NC(=O)NCc2ccc(F)cc2)c1
Measured result: 90.2
--
Compound: O=S(=O)(CCOc1ccccc1)N(CCOc1ccccc1)C1CCCCC1
Measured result: 103
--
Compound: O=C(NCc1ccccn1)c1cnn(-c2ccc(Cl)cc2)c1C(F)(F)F [CBK116637T]
Measured result: 101
--
Compound: CCOc1ccc(CNCCc2ccc(S(N)(=O)=O)cc2)cc1 [CBK268090C]
Measured result: 94.6
--
Compound: COCC(=O)N1CCc2nc(-c3ccc(F)cc3)sc2C1
Measured result: 107
--
Compound: C/C(=N\NC(=O)c1nonc1N)c1ccc(Cl)cc1
Measured result: 107
--
Compound: CCn1nc(C)c(-c2cncn2CCn2nc(C)c(C)c2C)c1C
Measured result: 98.8
--
Compound: COCCCOc1nccnc1NC(C)C
Measured result: 90
--
Compound: Cc1ccc(-n2nc(C(=O)O)c(C)c(C#N)c2=O)cc1C
Measured result: 93.3
--
Compound: N#Cc1[nH]nnc1-c1ccc(OC(F)(F)F)cc1
Measured result: 95.1
--
Compound: Cc1cc2ccccc2n2c(SCC(=O)NCCc3ccccc3)nnc12
Measured result: 111

----------
Entries and their measured viability at 28.5 h, 10 µM follow.
Assay explanation: in vitro
Condition context: human, hela cells, % viability

Compound: CC(C)(C)OC(=O)NCc1ccc2cccc(OCCO)c2n1
viability at 28.5 h, 10 µM [%]: 83.3

Compound: CCN(CC(=O)NCc1ccc(C)cc1)S(=O)(=O)c1ccc(C)cc1
viability at 28.5 h, 10 µM [%]: 110

Compound: COC(=O)c1cc(NC(=O)CC2Sc3ccccc3NC2=O)cc(C(=O)OC)c1 (stereo not drawn)
viability at 28.5 h, 10 µM [%]: 99.6

Compound: CSc1nc2ccccc2c2nc(-c3ccncc3)nn12
viability at 28.5 h, 10 µM [%]: 99.7

Compound: COc1cc(C(=O)Nc2ncccc2OCCCC#N)ccc1C
viability at 28.5 h, 10 µM [%]: 85.7

Compound: Cn1c(=O)c2c(nc(N3CCN(c4cccc(Cl)c4)CC3)n2CC(=O)O)n(C)c1=O
viability at 28.5 h, 10 µM [%]: 87.7

----------
Assay explanation: in vitro
Condition context: human, hela cells, % viability
Just a reminder that ties go to False: only viability at 28.5 h, 10 µM strictly below 90% counts as True.

Compound: O=C(O)C(c1c[nH]c2ccccc12)N1CCOCC1 (centres unmarked)
Group label: True
//
Compound: Cc1ccc(S(=O)(=O)NCCSc2nnc(N)s2)cc1
Group label: False
//
Compound: Cc1ccc(SCCNc2nc3c([nH]2)c(=O)n(C)c(=O)n3C)cc1
Group label: False

----------
Assay explanation: in vitro
Condition context: human, hela cells, % viability
Measured endpoint: viability at 28.5 h, 10 µM

Molecule: Cc1ccc(-c2csc(NC(=O)CN3C(=O)CCC3=O)n2)cc1
Measured result: 98.3%
--
Molecule: Cc1cc2nc(NCC3CCCO3)c3ccccc3n2n1 (centres unmarked)
Measured result: 99.6%
--
Molecule: Cn1ccc(C(=O)NC(Cc2cccs2)c2nccs2)n1 (centres unmarked)
Measured result: 91.4%
--
Molecule: O=C(C1=C(O)C(=O)N(Cc2ccncc2)C1c1cccc(OCc2ccccc2)c1)c1cccs1 (centres unmarked)
Measured result: 102%
--
Molecule: O=C1N=C(Nc2cccc(C(=O)O)c2)S/C1=C/c1cccc(O)c1
Measured result: 92.5%
--
Molecule: O=C(Nc1ccc2c(O)cc(S(=O)(=O)O)cc2c1)Nc1ccc2c(O)cc(S(=O)(=O)O)cc2c1 [CBK278157N]
Measured result: 91.1%
--
Molecule: CCCCOC(=O)c1ccc(N2C(=O)CC(N3CCN(c4ccc(F)cc4)CC3)C2=O)cc1 (centres unmarked)
Measured result: 94.6%
--
Molecule: NC(=NOC(=O)c1cccc(Br)c1)c1ccccc1
Measured result: 92.7%
--
Molecule: CC(C)c1ccc(/C=C/C(=O)NCc2ccccc2)cc1
Measured result: 112%
--
Molecule: O=C(CSc1nnc(-c2ccc3c(c2)OCO3)n1-c1ccccc1)c1ccc(Cl)cc1
Measured result: 100%
--
Molecule: CCOCCC(=O)NC1CCCc2nc(N3CCC(CO)CC3)ncc21 (centres unmarked)
Measured result: 92.8%
--
Molecule: COCCN(Cc1cnn(C)c1)C(=O)c1nc2ccccn2c1F
Measured result: 100%
--
Molecule: NS(=O)(=O)c1ccc(CCNC(=O)c2cccnc2)cc1
Measured result: 102%
--
Molecule: Cc1ccn2c(F)c(C(=O)N3CCCCC3CN3CCOCC3)nc2c1 (centres unmarked)
Measured result: 82%
